Answer each item with its documented pIC50.
# test target: M-phase inducer phosphatase 1 (Homo sapiens, UniProt P30304)
# Sequence (P30304 whole entry, the tested form may be a part): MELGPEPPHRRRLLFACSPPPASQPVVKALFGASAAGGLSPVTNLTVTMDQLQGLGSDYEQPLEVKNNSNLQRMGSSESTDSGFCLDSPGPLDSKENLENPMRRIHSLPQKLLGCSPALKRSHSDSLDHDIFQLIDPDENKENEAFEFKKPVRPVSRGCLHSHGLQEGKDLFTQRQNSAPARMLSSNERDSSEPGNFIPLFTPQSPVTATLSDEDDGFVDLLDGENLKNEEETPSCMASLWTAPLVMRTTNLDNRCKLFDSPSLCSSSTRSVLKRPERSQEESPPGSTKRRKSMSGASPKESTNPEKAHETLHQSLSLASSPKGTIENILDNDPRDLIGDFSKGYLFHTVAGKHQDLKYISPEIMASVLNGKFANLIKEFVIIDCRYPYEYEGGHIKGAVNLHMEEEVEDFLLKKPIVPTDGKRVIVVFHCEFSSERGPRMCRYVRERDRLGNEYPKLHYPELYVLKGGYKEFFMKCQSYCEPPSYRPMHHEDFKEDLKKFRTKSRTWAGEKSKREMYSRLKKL
# test description: Inhibition of recombinant CDC25A (unknown origin)
Just the number, please; pIC50 means minus log10 of the concentration in mol/L.

Form: Entry = CN(C)CCNC1=CC(=O)c2nc(-c3cc(F)ccc3F)oc2C1=O | System = M-phase inducer phosphatase 1 (Homo sapiens, UniProt P30304) | pIC50 = ____
7.64

Item: Cc1nc2c(s1)C(=O)C=C(NCCN(C)C)C2=O Test system: M-phase inducer phosphatase 1 (Homo sapiens, UniProt P30304) Read-out: pIC50 Value: ?
7.64

====

# test target: M-phase inducer phosphatase 1 (Homo sapiens, UniProt P30304)
# test description: Inhibition of N-terminal FLAG-tagged wild type CDC25A (331 to 524 residues) (unknown origin) expressed in Escherichia coli BL21 (DE3) cells incubated for 45 mins
quantity measured: IC50 (µM)
Write the answer as a number in µM, unit excluded.

Form field: reported IC50 of N#Cc1c(F)cc(O)cc1SCCS(=O)(=O)O
2200
